Cited source for all entries: the supplement of paper PMC10307832

Test system: NCI-H1355
Assay: relative viability (nuclei count vs DMSO), 5 days (fraction); higher = more cells survive
Settings: first compound 2.53 µM
Please provide measured relative viability for the entries that follow.

Can you share its relative viability? I mean this compound: CCCCCCCCCCCC1=C(O)C(=O)C=C(O)C1=O [Embelin] + Cc1nc(Nc2ncc(C(=O)Nc3c(C)cccc3Cl)s2)cc(N2CCN(CCO)CC2)n1 [Dasatinib] (partner 0.075 µM)
0.845

Recorded relative viability for CCCCCCCCCCCC1=C(O)C(=O)C=C(O)C1=O [Embelin] + N=C(N)NC(=N)NCCc1ccccc1 [Phenformin] (partner 250 µM) , please?
0.442

Please give the measured relative viability for this compound: CCCCCCCCCCCC1=C(O)C(=O)C=C(O)C1=O [Embelin] + COc1cc2c(Oc3ccc(NC(=O)C4(C(=O)Nc5ccc(F)cc5)CC4)cc3F)ccnc2cc1OCCCN1CCOCC1 [Foretinib] (partner 0.25 µM)
1.21

Which measured relative viability value corresponds to CCCCCCCCCCCC1=C(O)C(=O)C=C(O)C1=O [Embelin] + Cc1cc(Nc2cc(N3CCN(C)CC3)nc(Sc3ccc(NC(=O)C4CC4)cc3)n2)n[nH]1 [Tozasertib] (partner 0.1 µM) ?
0.546

Requested field: relative viability. Item: CCCCCCCCCCCC1=C(O)C(=O)C=C(O)C1=O [Embelin] + CC1(C)CCC(c2ccc(Cl)cc2)=C(CN2CCN(c3ccc(C(=O)NS(=O)(=O)c4ccc(N[C@H](CCN5CCOCC5)CSc5ccccc5)c(S(=O)(=O)C(F)(F)F)c4)cc3)CC2)C1 [Navitoclax] (partner 0.5 µM)
1.06

###

Give measured relative viability for each item. Keep answers brief.
Tested on: NCI-H1437
Test: relative viability (nuclei count vs DMSO), 5 days (fraction); higher = more cells survive
Settings: first compound 0.4 µM

Query: relative viability; subject: C[C@@H]1CN(CC(=O)Nc2ccc3c(c2)Cc2cccc(-c4cc(=O)cc(N5CCOCC5)o4)c2S3)C[C@H](C)O1 + N=C(N)NC(=N)NCCc1ccccc1 [Phenformin] (partner 250 µM)
0.303

Which relative viability is listed for Clc1ccc(Nc2nnc(Cc3ccncc3)c3ccccc23)cc1 [Vatalanib] + C[C@@H](Oc1cc(-c2cnn(C3CCNCC3)c2)cnc1N)c1c(Cl)ccc(F)c1Cl [Crizotinib] (partner 1 µM) ?
1.02

Form field: reported relative viability of COc1cc(N2CCC(C(N)=O)CC2)ccc1Nc1nc(N)c(Cl)c(Nc2ccccc2S(=O)(=O)C(C)C)n1 [HG-5-88-01] + Cc1nc(NC(=O)N2CCC[C@H]2C(N)=O)sc1-c1ccnc(C(C)(C)C(F)(F)F)c1 [Alpelisib] (partner 2 µM)
0.873

Endpoint output: relative viability of C[C@@H]1CN(CC(=O)Nc2ccc3c(c2)Cc2cccc(-c4cc(=O)cc(N5CCOCC5)o4)c2S3)C[C@H](C)O1 + Nc1nc2[nH]cc(CCc3ccc(C(=O)N[C@@H](CCC(=O)O)C(=O)O)cc3)c2c(=O)[nH]1 [Pemetrexed] (partner 0.2 µM) . Value?
0.336

###

Test system: NCI-H2405
Experiment: relative viability (nuclei count vs DMSO), 5 days (fraction); higher = more cells survive
Conditions: first compound 0.04 µM
Readout Label: relative viability
Respond numerically, and do not add a unit to the figure.

Param item = C[C@@H]1CN(CC(=O)Nc2ccc3c(c2)Cc2cccc(-c4cc(=O)cc(N5CCOCC5)o4)c2S3)C[C@H](C)O1 + Cc1nc(NC(=O)N2CCC[C@H]2C(N)=O)sc1-c1ccnc(C(C)(C)C(F)(F)F)c1 [Alpelisib] (partner 2 µM) ; retrieve measured relative viability.
0.899

What value of measured relative viability is listed for COc1cc(N2CCC(C(N)=O)CC2)ccc1Nc1nc(N)c(Cl)c(Nc2ccccc2S(=O)(=O)C(C)C)n1 [HG-5-88-01] + NC(=O)Nc1cc(-c2cccc(F)c2)sc1C(=O)N[C@H]1CCCNC1 [AZD7762] (partner 0.2 µM) ?
0.769

Data request, read-out relative viability, for Clc1ccc(Nc2nnc(Cc3ccncc3)c3ccccc23)cc1 [Vatalanib] + CC(=O)Nc1cccc(-n2c(=O)n(C3CC3)c(=O)c3c(Nc4ccc(I)cc4F)n(C)c(=O)c(C)c32)c1 [Trametinib] (partner 0.02 µM)
0.696

Please look up its relative viability: COc1cc(N2CCC(C(N)=O)CC2)ccc1Nc1nc(N)c(Cl)c(Nc2ccccc2S(=O)(=O)C(C)C)n1 [HG-5-88-01] + O=C(CCCCCCC(=O)Nc1ccccc1)NO [Vorinostat] (partner 1 µM)
1.07

// lookup relative viability for C[C@@H]1CN(CC(=O)Nc2ccc3c(c2)Cc2cccc(-c4cc(=O)cc(N5CCOCC5)o4)c2S3)C[C@H](C)O1 + Cc1cc(Nc2cc(N3CCN(C)CC3)nc(Sc3ccc(NC(=O)C4CC4)cc3)n2)n[nH]1 [Tozasertib] (partner 0.1 µM)
0.676

# relative viability lookup, item Clc1ccc(Nc2nnc(Cc3ccncc3)c3ccccc23)cc1 [Vatalanib] + N=C(N)NC(=N)NCCc1ccccc1 [Phenformin] (partner 250 µM)
0.425

Any idea what its relative viability is? The compound is COc1cc(N2CCC(C(N)=O)CC2)ccc1Nc1nc(N)c(Cl)c(Nc2ccccc2S(=O)(=O)C(C)C)n1 [HG-5-88-01] + C[C@]1(O)C[C@@H](c2nc(-c3ccc4ccc(-c5ccccc5)nc4c3)c3c(N)nccn32)C1 [Linsitinib] (partner 1 µM)
1.06

Look up relative viability: Clc1ccc(Nc2nnc(Cc3ccncc3)c3ccccc23)cc1 [Vatalanib] + NC(=O)Nc1cc(-c2cccc(F)c2)sc1C(=O)N[C@H]1CCCNC1 [AZD7762] (partner 0.2 µM)
0.799

Dear colleague, I am looking for the recorded relative viability of the following compound: C[C@@H]1CN(CC(=O)Nc2ccc3c(c2)Cc2cccc(-c4cc(=O)cc(N5CCOCC5)o4)c2S3)C[C@H](C)O1 + O=C(c1cc(Cc2n[nH]c(=O)c3ccccc23)ccc1F)N1CCN(C(=O)C2CC2)CC1 [Olaparib] (partner 8 µM)
0.938

###

Give relative viability for every item shown.
System: NCI-H1651
Assay: relative viability (nuclei count vs DMSO), 5 days (fraction); higher = more cells survive
Conditions: first compound 0.08 µM

Requested read-out: relative viability. Entry: CCCCCCCCCCCC1=C(O)C(=O)C=C(O)C1=O [Embelin] + CC(=O)c1c(C)c2cnc(Nc3ccc(N4CCNCC4)cn3)nc2n(C2CCCC2)c1=O [Palbociclib] (partner 0.5 µM)
0.503

Fill blank: measured relative viability of the molecule CCCCCCCCCCCC1=C(O)C(=O)C=C(O)C1=O [Embelin] + CS(=O)(=O)CCNCc1ccc(-c2ccc3ncnc(Nc4ccc(OCc5cccc(F)c5)c(Cl)c4)c3c2)o1 [Lapatinib] (partner 2 µM) is ____.
0.789

# relative viability lookup, item CCCCCCCCCCCC1=C(O)C(=O)C=C(O)C1=O [Embelin] + Nc1nc2[nH]cc(CCc3ccc(C(=O)N[C@@H](CCC(=O)O)C(=O)O)cc3)c2c(=O)[nH]1 [Pemetrexed] (partner 0.2 µM)
0.58

Quick check: relative viability of CCCCCCCCCCCC1=C(O)C(=O)C=C(O)C1=O [Embelin] + N=C(N)NC(=N)NCCc1ccccc1 [Phenformin] (partner 250 µM) ?
0.346

Data request, read-out relative viability, for CCCCCCCCCCCC1=C(O)C(=O)C=C(O)C1=O [Embelin] + CS(=O)(=O)N1CCN(Cc2cc3nc(-c4cccc5[nH]ncc45)nc(N4CCOCC4)c3s2)CC1 [Pictilisib] (partner 1 µM)
0.577

What relative viability value was documented for this molecule, CCCCCCCCCCCC1=C(O)C(=O)C=C(O)C1=O [Embelin] + C[C@]1(O)C[C@@H](c2nc(-c3ccc4ccc(-c5ccccc5)nc4c3)c3c(N)nccn32)C1 [Linsitinib] (partner 1 µM) ?
0.955

###

System: NCI-H441
Experiment: relative viability (nuclei count vs DMSO), 5 days (fraction); higher = more cells survive
Details: first compound 0.1265 µM
Label Met when relative viability < 0.6; otherwise Not met.

In the record for COc1cc(N2CCC(C(N)=O)CC2)ccc1Nc1nc(N)c(Cl)c(Nc2ccccc2S(=O)(=O)C(C)C)n1 [HG-5-88-01] + CC(=O)c1c(C)c2cnc(Nc3ccc(N4CCNCC4)cn3)nc2n(C2CCCC2)c1=O [Palbociclib] (partner 0.5 µM) , is relative viability less than 0.6?
Met

hey, is relative viability for C[C@@H]1CN(CC(=O)Nc2ccc3c(c2)Cc2cccc(-c4cc(=O)cc(N5CCOCC5)o4)c2S3)C[C@H](C)O1 + C[C@]1(O)C[C@@H](c2nc(-c3ccc4ccc(-c5ccccc5)nc4c3)c3c(N)nccn32)C1 [Linsitinib] (partner 1 µM) lower than 0.6 or not?
Met

Lab note: confirm whether the reported relative viability for this compound is below 0.6, equality not counting. compound: COc1cc(N2CCC(C(N)=O)CC2)ccc1Nc1nc(N)c(Cl)c(Nc2ccccc2S(=O)(=O)C(C)C)n1 [HG-5-88-01] + NC(=O)Nc1cc(-c2cccc(F)c2)sc1C(=O)N[C@H]1CCCNC1 [AZD7762] (partner 0.2 µM)
Not met

Quick check: relative viability of Clc1ccc(Nc2nnc(Cc3ccncc3)c3ccccc23)cc1 [Vatalanib] + C[C@]1(O)C[C@@H](c2nc(-c3ccc4ccc(-c5ccccc5)nc4c3)c3c(N)nccn32)C1 [Linsitinib] (partner 1 µM) under 0.6?
Met

Strictly below 0.6: is that where relative viability of C[C@@H]1CN(CC(=O)Nc2ccc3c(c2)Cc2cccc(-c4cc(=O)cc(N5CCOCC5)o4)c2S3)C[C@H](C)O1 + CS(=O)(=O)N1CCN(Cc2cc3nc(-c4cccc5[nH]ncc45)nc(N4CCOCC4)c3s2)CC1 [Pictilisib] (partner 1 µM) sits?
Met

Does this compound meet the criterion relative viability < 0.6? Clc1ccc(Nc2nnc(Cc3ccncc3)c3ccccc23)cc1 [Vatalanib] + Nc1ncn([C@H]2C[C@H](O)[C@@H](CO)O2)c(=O)n1 [Decitabine] (partner 2 µM)
Met

Decide: relative viability of Clc1ccc(Nc2nnc(Cc3ccncc3)c3ccccc23)cc1 [Vatalanib] + CC1(C)CCC(c2ccc(Cl)cc2)=C(CN2CCN(c3ccc(C(=O)NS(=O)(=O)c4ccc(N[C@H](CCN5CCOCC5)CSc5ccccc5)c(S(=O)(=O)C(F)(F)F)c4)cc3)CC2)C1 [Navitoclax] (partner 0.5 µM) strictly below 0.6?
Not met

State whether 0.6 exceeds relative viability recorded for COc1cc(N2CCC(C(N)=O)CC2)ccc1Nc1nc(N)c(Cl)c(Nc2ccccc2S(=O)(=O)C(C)C)n1 [HG-5-88-01] + Cc1nc(Nc2ncc(C(=O)Nc3c(C)cccc3Cl)s2)cc(N2CCN(CCO)CC2)n1 [Dasatinib] (partner 0.075 µM) .
Not met
